Target: Adenosine A2 receptor (Rattus norvegicus, UniProt P29276+P30543)
Experiment: Binding affinity towards adenosine A2 receptor
Assay type: protein assay
measuredMetric: Ki (µM)

> print(dat)
                                   molecule  readoutnumber
1  O=[N+]([O-])c1ccc2c(c1)CCC2Nc1ncnc2c1ncn2[C@@H]1O[C@H](CO)[C@@H](O)[C@H]1O (some centres undefined)          3.548
2  OC[C@H]1OC(n2cnc3c(NCC4=CCc5ccccc54)ncnc32)[C@H](O)[C@@H]1O (some centres undefined)         0.0442
3  OC[C@H]1O[C@@H](n2cnc3c(NC4CSc5ccccc5C4)ncnc32)[C@H](O)[C@@H]1O (some centres undefined)          0.229
4  OC[C@H]1O[C@@H](n2cnc3c(NC4CCc5cc(Cl)ccc54)ncnc32)[C@H](O)[C@@H]1O (some centres undefined)          1.808

----------
Target: Adenosine receptors; A1 & A2 (Rattus norvegicus) (UniProt P29276+P25099+P30543)
Assay: Ratio of Ki values of A1 adenosine and A2 adenosine receptor
Assay type: protein assay
Known Ratio of a selection of compounds
measuredMetric: Ratio

> print(dat)
                                    compound                              targetentity  readoutnumber
 1  O=[N+]([O-])c1ccc2c(c1)CCC2Nc1ncnc2c1ncn2[C@@H]1O[C@H](CO)[C@@H](O)[C@H]1O (some centres undefined)  Adenosine receptors; A1 & A2 (Rattus norvegicus) (UniProt P29276+P25099+P30543)           87.6
 2  OC[C@H]1O[C@@H](n2cnc3c(NC4CCc5cc(O)ccc54)ncnc32)[C@H](O)[C@@H]1O (some centres undefined)  Adenosine receptors; A1 & A2 (Rattus norvegicus) (UniProt P29276+P25099+P30543)           18.2
 3  OC[C@H]1O[C@@H](n2cnc3c(NC4CCc5cc(Cl)ccc54)ncnc32)[C@H](O)[C@@H]1O (some centres undefined)  Adenosine receptors; A1 & A2 (Rattus norvegicus) (UniProt P29276+P25099+P30543)             44
 4  COc1cc2c(cc1OC)CC(Nc1ncnc3c1ncn3[C@@H]1O[C@H](CO)[C@@H](O)[C@H]1O)C2  Adenosine receptors; A1 & A2 (Rattus norvegicus) (UniProt P29276+P25099+P30543)            278
 5  CCCCCOc1ccc2c(c1)CCC2Nc1ncnc2c1ncn2[C@@H]1O[C@H](CO)[C@@H](O)[C@H]1O (some centres undefined)  Adenosine receptors; A1 & A2 (Rattus norvegicus) (UniProt P29276+P25099+P30543)            120
 6  OC[C@H]1O[C@@H](n2cnc3c(NC4Cc5ccccc5C4)ncnc32)[C@H](O)[C@@H]1O  Adenosine receptors; A1 & A2 (Rattus norvegicus) (UniProt P29276+P25099+P30543)           68.9
 7  OC[C@H]1O[C@@H](n2cnc3c(NC4CCCc5c(O)cccc54)ncnc32)[C@H](O)[C@@H]1O (some centres undefined)  Adenosine receptors; A1 & A2 (Rattus norvegicus) (UniProt P29276+P25099+P30543)            8.6
 8  OC[C@H]1OC(n2cnc3c(NC4CCc5ccccc5C4)ncnc32)[C@H](O)[C@@H]1O (some centres undefined)  Adenosine receptors; A1 & A2 (Rattus norvegicus) (UniProt P29276+P25099+P30543)           40.3
 9  COc1ccc2c(c1)C(Nc1ncnc3c1ncn3[C@@H]1O[C@H](CO)[C@@H](O)[C@H]1O)CCC2 (single isomer, unassigned; isomer A)  Adenosine receptors; A1 & A2 (Rattus norvegicus) (UniProt P29276+P25099+P30543)           13.2
10  OC[C@H]1O[C@@H](n2cnc3c(NC4CCc5ccccc54)ncnc32)[C@H](O)[C@@H]1O (some centres undefined)  Adenosine receptors; A1 & A2 (Rattus norvegicus) (UniProt P29276+P25099+P30543)           24.5
11  COc1ccc2c(c1)CCC2Nc1ncnc2c1ncn2[C@@H]1O[C@H](CO)[C@@H](O)[C@H]1O (stereo in doubt; 4)  Adenosine receptors; A1 & A2 (Rattus norvegicus) (UniProt P29276+P25099+P30543)             73
12  COc1ccc2c(c1)CCCC2Nc1ncnc2c1ncn2[C@@H]1O[C@H](CO)[C@@H](O)[C@H]1O (some centres undefined)  Adenosine receptors; A1 & A2 (Rattus norvegicus) (UniProt P29276+P25099+P30543)           41.2
13  OC[C@H]1O[C@@H](n2cnc3c(NC4COc5ccccc5C4)ncnc32)[C@H](O)[C@@H]1O (some centres undefined)  Adenosine receptors; A1 & A2 (Rattus norvegicus) (UniProt P29276+P25099+P30543)           36.5
14  OC[C@H]1O[C@@H](n2cnc3c(NC4CCCc5ccc(O)cc54)ncnc32)[C@H](O)[C@@H]1O (some centres undefined)  Adenosine receptors; A1 & A2 (Rattus norvegicus) (UniProt P29276+P25099+P30543)              4
15  OC[C@H]1OC(n2cnc3c(NCC4=CCc5ccccc54)ncnc32)[C@H](O)[C@@H]1O (some centres undefined)  Adenosine receptors; A1 & A2 (Rattus norvegicus) (UniProt P29276+P25099+P30543)           1.36
16  OC[C@H]1O[C@@H](n2cnc3c(NCC4CCc5ccccc54)ncnc32)[C@H](O)[C@@H]1O (some centres undefined)  Adenosine receptors; A1 & A2 (Rattus norvegicus) (UniProt P29276+P25099+P30543)           12.9
17  OC[C@H]1O[C@@H](n2cnc3c(NC4CCCCc5ccccc54)ncnc32)[C@H](O)[C@@H]1O (some centres undefined)  Adenosine receptors; A1 & A2 (Rattus norvegicus) (UniProt P29276+P25099+P30543)           4.27
18  CCCOc1ccc2c(c1)CCC2Nc1ncnc2c1ncn2[C@@H]1O[C@H](CO)[C@@H](O)[C@H]1O (some centres undefined)  Adenosine receptors; A1 & A2 (Rattus norvegicus) (UniProt P29276+P25099+P30543)            188
19  CCCCOc1ccc2c(c1)CCC2Nc1ncnc2c1ncn2[C@@H]1O[C@H](CO)[C@@H](O)[C@H]1O (single isomer, unassigned; isomer B)  Adenosine receptors; A1 & A2 (Rattus norvegicus) (UniProt P29276+P25099+P30543)           81.7
20  OC[C@H]1O[C@@H](n2cnc3c(N[C@H]4CCCc5ccccc54)ncnc32)[C@H](O)[C@@H]1O  Adenosine receptors; A1 & A2 (Rattus norvegicus) (UniProt P29276+P25099+P30543)           13.3
21  CCCOc1cccc2c1CCCC2Nc1ncnc2c1ncn2[C@@H]1O[C@H](CO)[C@@H](O)[C@H]1O (some centres undefined)  Adenosine receptors; A1 & A2 (Rattus norvegicus) (UniProt P29276+P25099+P30543)              4
22  OC[C@H]1O[C@@H](n2cnc3c(NC4CCCc5c(OCc6ccccc6)cccc54)ncnc32)[C@H](O)[C@@H]1O (some centres undefined)  Adenosine receptors; A1 & A2 (Rattus norvegicus) (UniProt P29276+P25099+P30543)            3.7
23  OC[C@H]1O[C@@H](n2cnc3c(NC4CCCc5ccccc5C4)ncnc32)[C@H](O)[C@@H]1O (some centres undefined)  Adenosine receptors; A1 & A2 (Rattus norvegicus) (UniProt P29276+P25099+P30543)           48.7
24  CCCOc1ccc2c(c1)C(Nc1ncnc3c1ncn3[C@@H]1O[C@H](CO)[C@@H](O)[C@H]1O)CCC2 (some centres undefined)  Adenosine receptors; A1 & A2 (Rattus norvegicus) (UniProt P29276+P25099+P30543)           95.5
